assaySystem: IRE1α (Homo sapiens (Human), UniProt O75460, D688N)
Sequence (O75460 547-977 D688N): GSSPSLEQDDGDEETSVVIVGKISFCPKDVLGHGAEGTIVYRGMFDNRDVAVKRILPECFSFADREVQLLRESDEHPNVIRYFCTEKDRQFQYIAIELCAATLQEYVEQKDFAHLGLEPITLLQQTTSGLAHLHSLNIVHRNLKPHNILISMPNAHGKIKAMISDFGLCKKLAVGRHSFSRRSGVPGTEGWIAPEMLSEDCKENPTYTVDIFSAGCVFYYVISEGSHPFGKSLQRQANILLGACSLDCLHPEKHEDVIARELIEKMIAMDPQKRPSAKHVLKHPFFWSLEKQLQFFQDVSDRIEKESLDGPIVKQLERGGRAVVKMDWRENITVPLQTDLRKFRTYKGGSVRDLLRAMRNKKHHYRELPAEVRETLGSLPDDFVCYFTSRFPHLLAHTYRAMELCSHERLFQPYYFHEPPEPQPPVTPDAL
assayOverview: IRE1α TR-FRET competition binding assay (IRE1α HTRF)
conditionSummary: TR-FRET competition binding to kinase domain of IRE1α
Structures can show the parent of a compound that is named as a salt.
measurementLabel: pIC50
Give bare numbers, as −log10 of the molar value.

// solved cases for pIC50 follow
CC(C)n1c(=O)c(-c2c(F)cc(NS(=O)(=O)Cc3ccc(F)cc3)c(F)c2F)cc2cnc(N[C@H]3CC[C@H](N(C)C)CC3)nc21 [Compound 128]
9.82
CC(C)n1c(=O)c(-c2ccc(NS(=O)(=O)CCC(F)(F)F)c(F)c2)cc2cnc(N[C@H]3CC[C@H](N4CCCC4)CC3)nc21 [Compound 199]
9.60

Each of the following entries comes with a recorded value; kindly state pIC50 for each.
1. Cc1cccc(S(=O)(=O)Nc2ccc(-c3cc4cnc(N[C@H]5CC[C@H](N(C)C)CC5)nc4n(C(C)C)c3=O)c(C)n2)c1F [Compound 137]
2. Cc1ccc(CS(=O)(=O)Nc2c(F)cc(-c3nc4cnc(N[C@@H]5CNC[C@@H](F)C5)nc4n(C(C)C)c3=O)c(F)c2F)cc1 [Compound 170, hydrochloride]
3. CC(C)n1c(=O)c(-c2ccc(NS(=O)(=O)CC3CC34CC4)c(F)c2)nc2cnc(N[C@H]3CC[C@H](N(C)C)CC3)nc21 (stereo partly drawn) [Example 256]
4. CC(C)n1c(=O)c(-c2cc(F)c(NC(=O)C3CC3F)c(F)c2F)cc2cnc(N[C@H]3CC[C@H](N(C)C)CC3)nc21 (single isomer, unassigned) [Compound 98A]

9.32
9.89
9.52
8.55

---

assaySystem: IRE1α (Homo sapiens (Human), UniProt O75460, D688N)
assayOverview: IRE1α TR-FRET competition binding assay (IRE1α HTRF)
conditionSummary: TR-FRET competition binding to kinase domain of IRE1α
Field 'label' (enum: Met / Not met). Set to Met when IC50 is strictly under 0.7 nM; else Not met.

The examples below pair each entry with its known result.
CCn1c(=O)c(-c2cc(F)c(NS(=O)(=O)Cc3ccccc3)c(F)c2F)cc2cnc(N[C@@H]3CNC[C@@H](F)C3)nc21
Met
CC(C)n1c(=O)c(-c2ccc(NS(=O)(=O)Cc3ccc(F)cc3)c(F)c2)nc2cnc(N[C@@H]3CC[C@@H](N(C)C)[C@H](F)C3)nc21 (stereo in doubt) [Compound 181A]
Met
O=c1c(-c2ccc(NS(=O)(=O)Cc3ccccc3)c(F)c2F)cc2cnc(N[C@@H]3CNC[C@@H](F)C3)nc2n1C1CC1
Not met
CCCS(=O)(=O)Nc1c(F)ccc2c(-c3cc4cnc(N[C@H]5CCCNC5)nc4n(C)c3=O)cccc12
Not met

Shifting focus to the compound that follows.
Please state whether IC50 is below 0.7 nM for "CC(C)n1c(=O)c(-c2ccc(NS(=O)(=O)c3ccccc3)nc2)cc2cnc(N[C@H]3CC[C@H](N(C)CCF)CC3)nc21"
Met

---

What pIC50 was measured for each of the following?
assaySystem: IRE1α (Homo sapiens (Human), UniProt O75460, D688N)
assayOverview: IRE1α TR-FRET competition binding assay (IRE1α HTRF)
conditionSummary: TR-FRET competition binding to kinase domain of IRE1α
Structures can show the parent of a compound that is named as a salt.
One number for each entry, as −log10 of the molar value.

CCn1c(=O)c(-c2cc(F)c(NS(=O)(=O)CC3(F)CC3)c(F)c2F)cc2cnc(N[C@@H]3CNC[C@@H](F)C3)nc21
7.55

Each of the following entries comes with a recorded value; kindly state pIC50 for each.
1. CC(C)n1c(=O)c(-c2c(F)cc(NS(=O)(=O)CCC(F)(F)F)c(F)c2F)nc2cnc(N[C@H]3CC[C@H](N(C)C)CC3)nc21 [Compound 172, hydrochloride]
2. CCCS(=O)(=O)Nc1ccc(-c2cc3cnc(N[C@@H]4CNC[C@@H](F)C4)nc3n(CC)c2=O)c(F)c1F

[9.46, 8.08]
